Listed next: entries and their corresponding TGI.
tested on: IGROV1 ovarian; experiment: NCI tumour cell line growth inhibition, 48 h

C[C@H](OCc1ccccc1)C(=O)N1CCS(=O)(=O)N2CCC[C@@H]2C1=O | > 100 µM
O=[N+]([O-])c1ccc2sc(C=Nc3cnccn3)cc2c1 | > 100 µM
COc1cc(C(=O)c2c(-c3ccccc3)oc3c(OC)cccc23)cc(OC)c1OC | > 100 µM
CC(=O)Nc1ccc(S(=O)(=O)N/N=C/CN2C(=O)c3ccccc3C2=O)cc1 | > 100 µM
C[N+](C)(C)c1ccc(C(N)C(=O)O)cc1 (stereo not drawn) | > 100 µM
COc1ccc(/C=C/c2cc(OC)c(OC)c(OC)c2)cc1 | > 100 µM
O=C(Nc1cccc(-n2cc(-c3ccncc3)c(-c3ccc(Cl)c(O)c3)n2)c1)Nc1cc(C(F)(F)F)cc(C(F)(F)F)c1 | 2.55 µM
COc1cc2ccc(=O)oc2cc1O | 423 µM
O=C1CCCCCCCCCCC1CN1CCCC1 (stereo not drawn) | > 100 µM
OC1(C23CC4CC(CC(C4)C2)C3)CSCC1(O)C12CC3CC(CC(C3)C1)C2 (stereo not drawn) | > 100 µM

Hello, I am looking for reported TGI with IGROV1 ovarian for Nc1ccc(S(=O)(=O)c2ccc(NCN3C(=O)NC(=O)C(=O)C3=O)cc2)cc1 . Could you help?
> 100 µM

Provide value of TGI for this record tested with IGROV1 ovarian: Cc1ccc(C(N)=O)cc1N=NN(C)C
> 100 µM

Query the reported TGI for IGROV1 ovarian; item: COc1cc2nc(N3CCCC3)nc(NCc3ccccc3)c2cc1OC
16.2 µM

Observed TGI on IGROV1 ovarian for COC(=O)C1(Cc2ccc3c(c2)CCC3)Cc2ccccc2C1O (stereo not drawn) , please.
51.7 µM

Form field: TGI recorded for COP(=O)(OC)C(Cc1cn(C(C)=O)c2ccccc12)C(=O)O (stereo not drawn) with IGROV1 ovarian (enter value)
> 100 µM

Under IGROV1 ovarian: TGI value of C=CCN=C(N/N=C/c1ccc([N+](=O)[O-])o1)NS(=O)(=O)c1cc(C(=O)Nc2ccc(Cl)cc2)c(Cl)cc1SC ?
> 100 µM

So what TGI did CCOC(=O)CC[C@H](NC(=O)c1nc[nH]c1[N+](=O)[O-])C(=O)OCC get with IGROV1 ovarian?
> 100 µM

Any idea what TGI came out for COc1ccc2c(c1)C(=O)c1ccc(OC)cc1C2=S on IGROV1 ovarian?
> 100 µM

Lab note: need TGI for Cc1cc(S(=O)(=O)N/C(=C(\C#N)C(=O)c2ccc(Cl)cc2)[n+]2ccc(N(C)C)cc2)c([S-])cc1Cl on IGROV1 ovarian, anyone have it?
> 100 µM

Param readout= TGI; system= IGROV1 ovarian; entry= CC1CCCC2(CC[N+](C)(CCC[N+](C)(C)C)CC2)C1 (stereo not drawn) ; returns value.
> 100 µM

// fetch IGROV1 ovarian TGI for CC(=C(c1ccccc1)c1ccccc1)N1C(=O)CC(=O)N1C
39 µM

Reported TGI for IGROV1 ovarian, given Cc1cn(C2CC3C(COCN3O)O2)c(=O)[nH]c1=O (stereo not drawn) ?
> 100 µM

Param readout = TGI; param system = IGROV1 ovarian; param query = C=C/C=C/NC(=O)OCc1ccccc1 ; response: value
> 100 µM

Data origin, for the record: PubChem BioAssay (NCI)
